Catalogue of Percent Similarity Score (KD on hN) readings, one per entry.
- tested system: T1, human NGF (human, UniProt P01138 122-241)
- T1 construct: also called human Nerve Growth Factor; hN
- T1 chain: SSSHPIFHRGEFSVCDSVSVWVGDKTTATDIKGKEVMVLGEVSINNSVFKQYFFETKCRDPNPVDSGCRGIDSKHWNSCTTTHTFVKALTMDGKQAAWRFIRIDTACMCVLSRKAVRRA
- experiment description: SPR (Biacore T200), 100 nM mAb on NGF chip, similarity to parent mAb
Numbers only; they are read as %.

can9L12VH_G109A (antibody, V domains shown) VH: EVQLVESGGDLVKPGGSLRLSCVASGFTFSSHGMHWVRQSPGKGLQWVAVINSGGSSTYYTDAVKGRFTISRDNAKNTVYLQMNSLRAEDTAMYYCAKESVGGWEQLVAPHFDYWGQGTLVIVSS VL: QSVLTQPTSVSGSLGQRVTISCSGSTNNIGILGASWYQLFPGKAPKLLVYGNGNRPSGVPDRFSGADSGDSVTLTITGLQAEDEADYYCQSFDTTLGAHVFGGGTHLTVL | 40
can9L12VH_G103A (antibody, V domains shown) VH: EVQLVESGGDLVKPGGSLRLSCVASGFTFSSHGMHWVRQSPGKGLQWVAVINSGGSSTYYTDAVKGRFTISRDNAKNTVYLQMNSLRAEDTAMYYCAKESVGAWEQLVGPHFDYWGQGTLVIVSS VL: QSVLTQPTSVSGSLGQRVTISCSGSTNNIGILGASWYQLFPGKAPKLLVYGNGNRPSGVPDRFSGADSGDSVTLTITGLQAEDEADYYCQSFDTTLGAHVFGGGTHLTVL | 38.2

Here is the next item to consider.
**Query** Which Percent Similarity Score (KD on hN) reading was recorded for the binder can48L2VH_G54A (antibody, V domains shown, CDR scanning mutant of ZTS-842 (48L2)) VH: EVQLVESGGDLVKPGGSLRLSCVASGFTFSTYGINWVRQAPGKGLQWVAYISSAGSSTYYADPVKGRFTISRDDAKNMLYLQMNSLRAEDTAIYYCAGSRYTYAYGGGYEFHFWGQGTLVTVSS VL: QAVLNQPASVSGALGQKVTISCSGSTMDIDIFGVSWYQQLPGKAPKLLVDSDGDRPSGIPDRFSGSRSGNSGTLTITGLQAEDEADYHCQSGDSTLGALAIFGGGTHVTVL ?
**Result** 100
